pIC50: −log10 of the molar value.
Study the reported pIC50 values for Dipeptidyl peptidase 1 (Homo sapiens, UniProt P53634) given below; they originate from different publications.

molecule: CC[C@H](N)C(=O)N[C@H](C#N)CCc1ccccc1
inequality_sign: =
pIC50: 6.09
--
molecule: CO[C@@H](C)c1c(NC(=O)Nc2cnc(-n3nccn3)c(Cl)c2)cnc2cc(Cl)nn12
inequality_sign: <
pIC50: 4.00
--
molecule: CC[C@H](N)C(=O)N[C@H](C#N)Cc1ccc(Cl)cc1
inequality_sign: =
pIC50: 7.02
--
molecule: CC[C@H](N)C(=O)N[C@H](C#N)C/C=C/c1ccccc1
inequality_sign: =
pIC50: 6.86
--
molecule: CCNc1nc(C#N)nc2c1ncn2-c1cc(F)cc(F)c1
inequality_sign: =
pIC50: 6.23
--
molecule: N#CC(Cc1ccccc1)NC(=O)[C@@H](N)Cc1ccccc1 (stereo in doubt; 8)
inequality_sign: =
pIC50: 6.38
--
molecule: COc1ccc(C(=O)NCc2ccnc(C#N)n2)cc1C(=O)C(C)(C)c1cc(Cl)cc(Cl)c1
inequality_sign: =
pIC50: 4.18
--
molecule: CN(C)CCOc1ccc(C(=O)NCC(=O)NCC#N)cc1C(=O)C(C)(C)c1cc(Cl)cc(Cl)c1
inequality_sign: <
pIC50: 4.00
--
molecule: N#C[C@H](Cc1ccccc1)NC(=O)[C@@H]1CCCN1
inequality_sign: =
pIC50: 5.02
